Organism: Rattus norvegicus
Assay: Open TG-GATES - Regimen: Daily Repeat
Assay type: toxicity, organism-based, Sprague-Dawley
Set-up: regimen Daily Repeat, gender Male, age 6 weeks
Settings: in vivo, po, 0 mg/kg, […], tissue Blood, route gavage, dose level Control, time 7 day
# MCV per record follows
Observation type: MCV (fL)

{"Molecule": "Cc1cccc(Nc2cc(Cl)nc(SCC(=O)O)n2)c1C", "Observation type": "MCV", "Measurement unit": "fL", "Observed": 62.3}
{"Molecule": "Cc1cnc(NC(=O)C2=C(O)c3ccccc3S(=O)(=O)N2C)s1", "Observation type": "MCV", "Measurement unit": "fL", "Observed": 61.4}
{"Molecule": "O=C1CN(/N=C/c2ccc(-c3ccc([N+](=O)[O-])cc3)o2)C(O)=N1", "Observation type": "MCV", "Measurement unit": "fL", "Observed": 62.7}
{"Molecule": "COc1ccc(O)c(C(C)(C)C)c1.COc1ccc(O)cc1C(C)(C)C [BUTYLATED HYDROXYANISOLE]", "Observation type": "MCV", "Measurement unit": "fL", "Observed": 60.1}
{"Molecule": "C=CCO", "Observation type": "MCV", "Measurement unit": "fL", "Observed": 60.6}
{"Molecule": "Cn1cnc([N+](=O)[O-])c1Sc1ncnc2nc[nH]c12", "Observation type": "MCV", "Measurement unit": "fL", "Observed": 63}

====

Species on record: Rattus norvegicus
Assay: Open TG-GATES - Regimen: Single
Type: toxicity, organism-based, Sprague-Dawley
Set-up: regimen Single, gender Male, age 6 weeks
Settings: in vivo, po, 0 mg/kg, 3 h, tissue Blood, route gavage, dose level Control
Simple rule here: Mono less than 3% is Satisfied, otherwise Not satisfied.

{"Compound": "Cc1cccc(Nc2cc(Cl)nc(SCC(=O)O)n2)c1C", "Group label": "Satisfied"}
{"Compound": "CS(=O)(=O)Nc1ccc([N+](=O)[O-])cc1Oc1ccccc1 [NIMESULIDE]", "Group label": "Not satisfied"}
{"Compound": "Cc1cnc(NC(=O)C2=C(O)c3ccccc3S(=O)(=O)N2C)s1", "Group label": "Satisfied"}
{"Compound": "O=C1CN(/N=C/c2ccc(-c3ccc([N+](=O)[O-])cc3)o2)C(O)=N1", "Group label": "Not satisfied"}
{"Compound": "S=C=Nc1cccc2ccccc12 [1-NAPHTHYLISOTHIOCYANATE]", "Group label": "Satisfied"}
{"Compound": "Cn1cnc([N+](=O)[O-])c1Sc1ncnc2nc[nH]c12", "Group label": "Satisfied"}

====

# Ht per record follows
Organism: Rattus norvegicus
Assay: Open TG-GATES - Regimen: Daily Repeat
Assay type: toxicity, organism-based, Sprague-Dawley
Set-up: regimen Daily Repeat, gender Male, age 6 weeks
Details: in vivo, po, 0 mg/kg, […], tissue Blood, route gavage, dose level Control, time 28 day

{"Compound": "Cn1c(=O)c2c(ncn2C)n(C)c1=O [CAFFEINE]", "Ht (%)": 43.6}
{"Compound": "O=C1NC(=O)C(c2ccccc2)(c2ccccc2)N1 [PHENYTOIN]", "Ht (%)": 42.8}
{"Compound": "O=P1(N(CCCl)CCCl)NCCCO1 (stereo not given) [CYCLOPHOSPHAMIDE ANHYDROUS]", "Ht (%)": 43.6}
{"Compound": "CS(=O)(=O)Nc1ccc([N+](=O)[O-])cc1Oc1ccccc1 [NIMESULIDE]", "Ht (%)": 44.6}
{"Compound": "Cc1cccc(Nc2cc(Cl)nc(SCC(=O)O)n2)c1C [PIRINIXIC ACID]", "Ht (%)": 44.2}

====

Organism: Rattus norvegicus
Experiment: Open TG-GATES - Regimen: Daily Repeat
Type: toxicity, organism-based, Sprague-Dawley
Parameters: regimen Daily Repeat, gender Male, age 6 weeks
Settings: in vivo, po, 0 mg/kg, […], tissue Blood, route gavage, dose level Control, time 14 day
Observation type: Fbg

{"Compound": "Cn1c(=O)c2c(ncn2C)n(C)c1=O", "Observation type": "Fbg", "Observed": "311.4 mg/dL"}
{"Compound": "COc1ccc(O)c(C(C)(C)C)c1.COc1ccc(O)cc1C(C)(C)C [BUTYLATED HYDROXYANISOLE]", "Observation type": "Fbg", "Observed": "269.2 mg/dL"}
{"Compound": "Cn1cnc([N+](=O)[O-])c1Sc1ncnc2nc[nH]c12", "Observation type": "Fbg", "Observed": "309 mg/dL"}
{"Compound": "O=C1CN(/N=C/c2ccc(-c3ccc([N+](=O)[O-])cc3)o2)C(O)=N1", "Observation type": "Fbg", "Observed": "201.8 mg/dL"}
{"Compound": "CS(=O)(=O)Nc1ccc([N+](=O)[O-])cc1Oc1ccccc1 [NIMESULIDE]", "Observation type": "Fbg", "Observed": "234.2 mg/dL"}

====

Organism: Rattus norvegicus
Assay: Open TG-GATES - Regimen: Single
Format: toxicity, organism-based, Sprague-Dawley
Design: regimen Single, gender Male, age 6 weeks
Details: in vivo, po, 0 mg/kg, 9 h, tissue Blood, route gavage, dose level Control

{"Compound": "COc1ccc(O)c(C(C)(C)C)c1.COc1ccc(O)cc1C(C)(C)C [BUTYLATED HYDROXYANISOLE]", "Lym (%)": 74.4}
{"Compound": "O=C1NC(=O)C(c2ccccc2)(c2ccccc2)N1", "Lym (%)": 76.2}
{"Compound": "Cc1cccc(Nc2cc(Cl)nc(SCC(=O)O)n2)c1C", "Lym (%)": 74.6}
{"Compound": "CS(=O)(=O)Nc1ccc([N+](=O)[O-])cc1Oc1ccccc1 [NIMESULIDE]", "Lym (%)": 71.6}
{"Compound": "CNCCC(Oc1ccc(C(F)(F)F)cc1)c1ccccc1.Cl (stereo unspecified) [FLUOXETINE HYDROCHLORIDE]", "Lym (%)": 66.4}
{"Compound": "Cc1cnc(NC(=O)C2=C(O)c3ccccc3S(=O)(=O)N2C)s1", "Lym (%)": 72.4}
{"Compound": "Cn1cnc([N+](=O)[O-])c1Sc1ncnc2nc[nH]c12", "Lym (%)": 79.6}
{"Compound": "S=C=Nc1cccc2ccccc12 [1-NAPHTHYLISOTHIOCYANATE]", "Lym (%)": 75}
{"Compound": "O=C1CN(/N=C/c2ccc(-c3ccc([N+](=O)[O-])cc3)o2)C(O)=N1", "Lym (%)": 76.4}
{"Compound": "C=CCO", "Lym (%)": 74.8}
{"Compound": "COc1ccc(Cl)cc1C(=O)NCCc1ccc(S(=O)(=O)NC(=O)NC2CCCCC2)cc1 [GLYBURIDE]", "Lym (%)": 77}

====

# Lym per record follows
Species: Rattus norvegicus
Test: Open TG-GATES - Regimen: Daily Repeat
Format: toxicity, organism-based, Sprague-Dawley
Parameters: regimen Daily Repeat, gender Male, age 6 weeks
Conditions: in vivo, po, 0 mg/kg, 72 h, tissue Blood, route gavage, dose level Control, time 3 day

{"Molecule": "Cc1cnc(NC(=O)C2=C(O)c3ccccc3S(=O)(=O)N2C)s1", "Lym (%)": 78.4}
{"Molecule": "COc1ccc(O)c(C(C)(C)C)c1.COc1ccc(O)cc1C(C)(C)C [BUTYLATED HYDROXYANISOLE]", "Lym (%)": 71.6}
{"Molecule": "COc1ccc(Cl)cc1C(=O)NCCc1ccc(S(=O)(=O)NC(=O)NC2CCCCC2)cc1 [GLYBURIDE]", "Lym (%)": 81.6}
{"Molecule": "CS(=O)(=O)Nc1ccc([N+](=O)[O-])cc1Oc1ccccc1 [NIMESULIDE]", "Lym (%)": 78}
{"Molecule": "Cn1cnc([N+](=O)[O-])c1Sc1ncnc2nc[nH]c12", "Lym (%)": 80.4}
{"Molecule": "O=C1NC(=O)C(c2ccccc2)(c2ccccc2)N1", "Lym (%)": 81.2}
{"Molecule": "O=C1CN(/N=C/c2ccc(-c3ccc([N+](=O)[O-])cc3)o2)C(O)=N1", "Lym (%)": 77}
{"Molecule": "O=P1(N(CCCl)CCCl)NCCCO1 (stereo unspecified) [CYCLOPHOSPHAMIDE ANHYDROUS]", "Lym (%)": 81.4}
{"Molecule": "C=CCO", "Lym (%)": 79.4}
{"Molecule": "Cc1cccc(Nc2cc(Cl)nc(SCC(=O)O)n2)c1C", "Lym (%)": 75.2}
{"Molecule": "Cn1c(=O)c2c(ncn2C)n(C)c1=O", "Lym (%)": 81.2}

====

# KIDNEY_L per record follows
Organism: Rattus norvegicus
Test: Open TG-GATES - Regimen: Daily Repeat
Format: toxicity, organism-based, Sprague-Dawley
Parameters: regimen Daily Repeat, gender Male, age 6 weeks
Conditions: in vivo, po, 0 mg/kg, […], tissue Kidney, route gavage, dose level Control, time 28 day
Observation type: KIDNEY_L

{"Molecule": "O=P1(N(CCCl)CCCl)NCCCO1 (stereo unspecified) [CYCLOPHOSPHAMIDE ANHYDROUS]", "Observation type": "KIDNEY_L", "Observed": "1.3 g"}
{"Molecule": "C=CCO", "Observation type": "KIDNEY_L", "Observed": "1.3 g"}
{"Molecule": "Cn1cnc([N+](=O)[O-])c1Sc1ncnc2nc[nH]c12", "Observation type": "KIDNEY_L", "Observed": "1.2 g"}
{"Molecule": "Cn1c(=O)c2c(ncn2C)n(C)c1=O", "Observation type": "KIDNEY_L", "Observed": "1.4 g"}
{"Molecule": "COc1ccc(Cl)cc1C(=O)NCCc1ccc(S(=O)(=O)NC(=O)NC2CCCCC2)cc1 [GLYBURIDE]", "Observation type": "KIDNEY_L", "Observed": "1.3 g"}
{"Molecule": "O=C1NC(=O)C(c2ccccc2)(c2ccccc2)N1", "Observation type": "KIDNEY_L", "Observed": "1.3 g"}
{"Molecule": "CS(=O)(=O)Nc1ccc([N+](=O)[O-])cc1Oc1ccccc1 [NIMESULIDE]", "Observation type": "KIDNEY_L", "Observed": "1.4 g"}
{"Molecule": "Cc1cnc(NC(=O)C2=C(O)c3ccccc3S(=O)(=O)N2C)s1", "Observation type": "KIDNEY_L", "Observed": "1.4 g"}
{"Molecule": "COc1ccc(O)c(C(C)(C)C)c1.COc1ccc(O)cc1C(C)(C)C [BUTYLATED HYDROXYANISOLE]", "Observation type": "KIDNEY_L", "Observed": "1.3 g"}
{"Molecule": "O=C1CN(/N=C/c2ccc(-c3ccc([N+](=O)[O-])cc3)o2)C(O)=N1", "Observation type": "KIDNEY_L", "Observed": "1.4 g"}
{"Molecule": "Cc1cccc(Nc2cc(Cl)nc(SCC(=O)O)n2)c1C", "Observation type": "KIDNEY_L", "Observed": "1.4 g"}
